assay_target: T1, secretory phospholipase A2 (sPLA2) (Homo sapiens, UniProt P14555 P14555:21-144)
T1 sequence: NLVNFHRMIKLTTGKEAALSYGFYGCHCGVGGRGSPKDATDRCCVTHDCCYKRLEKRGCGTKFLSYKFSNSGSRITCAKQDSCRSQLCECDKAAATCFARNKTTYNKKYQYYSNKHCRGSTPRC
assay_text: filter; biphasic, Kd2 360 nM, mole fraction 0.40; TBSC, 37 C
condition_parameters: tags: supplied by Eli Lilly
Description: The nitrocellulose filter partitioning method was used as described in SELEX Patent Applications to determine the affinity of RNA ligands for sPLA_2 and for other promins. […] The filters were air-dried and counted in a Beckman liquid scintillation counter without fluor. The dissociation constants for representative members of families I–VI, orphan and other ligands were determined by nitrocellulose filter binding experiments and are listed in Table III. […]
measure_name: pKd
// pKd here means minus log10 of the molar concentration (mol/L)

Qu. I would be grateful if you could share the reported pKd for 72t.2c (ssRNA) RNA: GGGAUAAACGCUCAACUUACAGUUCGGCUGAGACGAAGAUCGACCUUCGACAU .
Ans. 8.30
